# Target entity: human M2 receptors (Homo sapiens)
# Construct: purchased Receptor Biology; host or cells: CHO-K1 cells transfected with the human receptor (membranes)
# Assay notes: Binding test to cloned human M2 muscarinic receptor ([3H]-NMS displacement, CHO-K1 membranes), reported as M2/M3 ratio
# Applied conditions: value greater than 1 indicates selectivity for the M3 receptor
Structures can show the parent of a compound that is named as a salt.
Property measured: M2/M3 (ratio between M2 and M3 receptor affinities)
Number only, please.

Please review the following examples before continuing.
{"columns": ["Compound", "Reported result"],
 "data": [
  ["Cc1cccc(N(Cc2ccc3c(c2)OCCO3)C(=O)OC2CN3CCC2CC3)c1 (stereo not drawn)", 26],
  ["O=C(OC1CN2CCC1CC2)N(Cc1ccccc1O)c1ccccc1F (stereo not drawn)", 37],
  ["Cc1ccc(F)c(N(Cc2ccccc2F)C(=O)OC2CN3CCC2CC3)c1 (stereo not drawn)", 21],
  ["N#Cc1ccc(CN(C(=O)OC2CN3CCC2CC3)c2ccccc2)cc1 (stereo not drawn)", 31]
]}

Could you now look at the following compound, please?
# M2/M3 (ratio between M2 and M3 receptor affinities) (compound: O=C(O[C@H]1CN2CCC1CC2)N(Cc1ccccc1)c1ccccc1 [Example 2, hydrochloride] ) is 5

----------
# Target entity: human M2 receptors (Homo sapiens, UniProt P08172)
# Construct: purchased Receptor Biology; host or cells: CHO-K1 cells transfected with the human receptor (membranes)
# Sequence (P08172 1-466): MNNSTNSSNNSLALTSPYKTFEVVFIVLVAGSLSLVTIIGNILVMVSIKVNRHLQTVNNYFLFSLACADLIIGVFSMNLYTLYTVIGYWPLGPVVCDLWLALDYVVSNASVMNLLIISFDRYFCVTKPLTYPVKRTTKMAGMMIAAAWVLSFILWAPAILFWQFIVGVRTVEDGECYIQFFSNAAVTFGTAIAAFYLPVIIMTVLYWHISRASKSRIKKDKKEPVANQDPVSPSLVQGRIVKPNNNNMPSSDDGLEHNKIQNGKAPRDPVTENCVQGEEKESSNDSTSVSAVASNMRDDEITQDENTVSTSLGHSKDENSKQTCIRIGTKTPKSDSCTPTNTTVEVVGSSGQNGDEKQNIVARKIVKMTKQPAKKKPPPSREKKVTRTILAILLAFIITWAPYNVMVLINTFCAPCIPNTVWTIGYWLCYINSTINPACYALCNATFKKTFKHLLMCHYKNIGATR
# Assay notes: Binding test to cloned human M2 muscarinic receptor ([3H]-NMS displacement, CHO-K1 membranes), reported as M2/M3 ratio
# Applied conditions: value greater than 1 indicates selectivity for the M3 receptor
The following compounds are listed with their measured M2/M3 (ratio between M2 and M3 receptor affinities) values.

{"columns": ["Compound", "Reported result"],
 "data": [
  ["Cc1ccc(F)c(N(Cc2ccc(Cl)cc2)C(=O)OC2CN3CCC2CC3)c1 (stereo not drawn) [Example 19]", 23],
  ["N#Cc1ccc(N(Cc2ccccc2)C(=O)OC2CN3CCC2CC3)cc1 (stereo not drawn) [Example 13]", 17],
  ["O=C(OC1CN2CCC1CC2)N(Cc1ccccc1)c1ccc(F)c(F)c1 (stereo not drawn) [Example 9]", 9]
]}

# M2/M3 (ratio between M2 and M3 receptor affinities) (compound: C[N+]12CCC(CC1)C(OC(=O)N(Cc1ccccc1)c1ccccc1F)C2.[I-] (stereo not drawn) [Example 68] ) is 5

# M2/M3 (ratio between M2 and M3 receptor affinities) (compound: O=C(OC1CN2CCC1CC2)N(Cc1ccccc1)c1cccc(Cl)c1 (stereo not drawn) [Example 6] ) is 87

# M2/M3 (ratio between M2 and M3 receptor affinities) (compound: O=C(OC1CN2CCC1CC2)N(Cc1cc(F)ccc1F)c1ccccc1Cl (stereo not drawn) [Example 24] ) is 33

# M2/M3 (ratio between M2 and M3 receptor affinities) (compound: O=C(OC1CN2CCC1CC2)N(Cc1ccc(Cl)c(F)c1)c1ccccc1F (stereo not drawn) [Example 27] ) is 92

# M2/M3 (ratio between M2 and M3 receptor affinities) (compound: Cc1ccccc1N(Cc1cc(F)c(F)cc1F)C(=O)OC1C[N+]2(C)CCC1CC2.[I-] (stereo not drawn) [Example 66] ) is 18

# M2/M3 (ratio between M2 and M3 receptor affinities) (compound: C[N+]12CCC(CC1)C(OC(=O)N(Cc1ccccc1)c1ccccc1)C2.[I-] (stereo not drawn) [Example 3] ) is 7

# M2/M3 (ratio between M2 and M3 receptor affinities) (compound: CC(C)(C)c1ccc(CN(C(=O)OC2CN3CCC2CC3)c2ccccc2)cc1 (stereo not drawn) [Example 41] ) is 271

# M2/M3 (ratio between M2 and M3 receptor affinities) (compound: O=C(OC1CN2CCC1CC2)N(Cc1ccc(Cl)cc1Cl)c1ccc(F)cc1F (stereo not drawn) [Example 21] ) is 5

# M2/M3 (ratio between M2 and M3 receptor affinities) (compound: O=C(OC1CN2CCC1CC2)N(Cc1ccc(C(F)(F)F)cc1)c1ccccc1 (stereo not drawn) [Example 39] ) is 84

# M2/M3 (ratio between M2 and M3 receptor affinities) (compound: Cc1cccc(N(CC2CCCC2)C(=O)OC2CN3CCC2CC3)c1 (stereo not drawn) [Example 56] ) is 37

# M2/M3 (ratio between M2 and M3 receptor affinities) (compound: CC(C)Oc1ccc(CN(C(=O)OC2CN3CCC2CC3)c2ccccc2)cc1 (stereo not drawn) [Example 50] ) is 26

# M2/M3 (ratio between M2 and M3 receptor affinities) (compound: COc1ccc(CN(C(=O)OC2CN3CCC2CC3)c2ccccc2F)cc1F (stereo not drawn) [Example 32] ) is 19

# M2/M3 (ratio between M2 and M3 receptor affinities) (compound: O=C(OC1CN2CCC1CC2)N(Cc1cccc(F)c1F)c1cccc(Cl)c1 (stereo not drawn) [Example 20] ) is 149

# M2/M3 (ratio between M2 and M3 receptor affinities) (compound: O=C(OC1CN2CCC1CC2)N(CC1CC1)c1ccccc1 (stereo not drawn) [Example 54] ) is 32

# M2/M3 (ratio between M2 and M3 receptor affinities) (compound: O=C(OC1CN2CCC1CC2)N1CCc2ccccc2[C@@H]1c1ccccc1 (stereo partly drawn) [YM-905, reference compound] ) is 24

# M2/M3 (ratio between M2 and M3 receptor affinities) (compound: Cc1cccc(N(Cc2ccccc2C)C(=O)OC2CN3CCC2CC3)c1 (stereo not drawn) [Example 38] ) is 40

# M2/M3 (ratio between M2 and M3 receptor affinities) (compound: O=C(OC1CN2CCC1CC2)N(Cc1cccc(OCc2ccccc2)c1)c1cccc(Cl)c1 (stereo not drawn) [Example 48] ) is 24

----------
The following compounds are listed with their measured pKi values.
# Target entity: human M3 receptors (Homo sapiens)
# Construct: purchased Receptor Biology; host or cells: CHO-K1 cells transfected with the human receptor (membranes)
# Sequence (P20309 whole entry): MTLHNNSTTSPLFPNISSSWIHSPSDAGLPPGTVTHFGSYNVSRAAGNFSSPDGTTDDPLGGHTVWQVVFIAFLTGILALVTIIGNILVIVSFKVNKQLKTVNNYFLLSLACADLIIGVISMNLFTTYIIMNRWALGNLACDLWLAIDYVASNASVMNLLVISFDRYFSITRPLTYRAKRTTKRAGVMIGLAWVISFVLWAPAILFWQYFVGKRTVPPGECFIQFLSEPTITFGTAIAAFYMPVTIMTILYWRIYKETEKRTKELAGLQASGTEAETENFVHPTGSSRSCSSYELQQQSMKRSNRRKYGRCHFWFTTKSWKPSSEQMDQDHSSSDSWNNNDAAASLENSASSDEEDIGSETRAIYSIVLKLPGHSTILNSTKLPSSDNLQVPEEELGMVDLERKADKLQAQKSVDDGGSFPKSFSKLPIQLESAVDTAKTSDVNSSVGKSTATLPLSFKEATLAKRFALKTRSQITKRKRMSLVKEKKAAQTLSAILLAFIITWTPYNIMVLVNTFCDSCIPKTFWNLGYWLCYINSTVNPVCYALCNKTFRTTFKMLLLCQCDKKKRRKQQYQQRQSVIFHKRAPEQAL
# Assay notes: Binding test to cloned human M3 muscarinic receptor ([3H]-NMS displacement, CHO-K1 membranes)
# Applied conditions: membranes of CHO-K1 cells transfected with human M3; [3H]-NMS; mean of two independent experiments in duplicate; read-out: M3 (human M3 antagonist activity, binding affinity constant Ki)
# Method: Membranes from CHO—K1 cells transfected with human M2 or M3 receptors (Receptor Biology) were used. […] Non specific binding was determined in parallel assays in presence of atropine (5 μM). […] Filter bound radioactivity was quantified by liquid scintillation counting. For the calculation of the inhibition constant (Ki), displacement curves were analysed by non-linear regression (GraphPad Prism). […]
Please report pKi as the negative decimal logarithm of the molar concentration, giving only the number.

{"columns": ["Compound", "Reported result"],
 "data": [
  ["Cc1cccc(N(Cc2ccc3c(c2)OCCO3)C(=O)OC2CN3CCC2CC3)c1 (stereo not shown)", 8.90],
  ["O=C(O[C@H]1CN2CCC1CC2)N(Cc1ccccc1)c1c(F)cccc1F", 9.70],
  ["O=C(OC1CN2CCC1CC2)N(Cc1cccc(OC(F)(F)F)c1)c1ccccc1 (stereo not shown)", 8.00],
  ["CCc1ccc(CN(C(=O)OC2CN3CCC2CC3)c2ccccc2)cc1 (stereo not shown)", 10.18],
  ["Cc1cccc(N(Cc2ccc(F)cc2F)C(=O)OC2CN3CCC2CC3)c1 (stereo not shown)", 9.29]
]}

# pKi (compound: CC(C)Oc1ccc(CN(C(=O)OC2CN3CCC2CC3)c2ccccc2)cc1 (stereo not shown) ) is 9.08

# pKi (compound: O=C(OC1CN2CCC1CC2)N(CC1CC2CCC1C2)c1cccc(F)c1 (stereo not shown) ) is 9.66

----------
# Target entity: human M2 receptors (Homo sapiens)
# Construct: purchased Receptor Biology; host or cells: CHO-K1 cells transfected with the human receptor (membranes)
# Assay notes: Binding test to cloned human M2 muscarinic receptor ([3H]-NMS displacement, CHO-K1 membranes), reported as M2/M3 ratio
# Applied conditions: value greater than 1 indicates selectivity for the M3 receptor
Structures can show the parent of a compound that is named as a salt.
In plain terms, low M2/M3 (ratio between M2 and M3 receptor affinities), meaning strictly below 30, gives YES, and everything else gives NO.

Example cases with answers are listed next.
{"columns": ["Molecule", "Class"],
 "data": [
  ["COc1ccc(CN(C(=O)OC2CN3CCC2CC3)c2cccc(Cl)c2)c(F)c1 (stereo not shown)", "NO"],
  ["O=C(OC1CN2CCC1CC2)N(CC1CC=CCC1)c1cccc(Cl)c1 (stereo not shown)", "NO"],
  ["O=C(OC1CN2CCC1CC2)N(Cc1ccccc1)c1ccccc1 (stereo not shown) [Example 1, hydrochloride]", "YES"]
]}

M2/M3 (ratio between M2 and M3 receptor affinities) strictly < 30 for this molecule? O=C(OC1CN2CCC1CC2)N(Cc1cc(F)c(F)c(F)c1)c1ccc(F)cc1 (stereo not shown)
NO

M2/M3 (ratio between M2 and M3 receptor affinities) strictly < 30 for this molecule? O=C(OC1CN2CCC1CC2)N(Cc1ccc(Cl)c(Cl)c1)c1ccccc1 (stereo not shown)
NO

M2/M3 (ratio between M2 and M3 receptor affinities) strictly < 30 for this molecule? C[N+]12CCC(CC1)C(OC(=O)N(CC1CCCCC1)c1ccccc1F)C2.[I-] (stereo not shown)
YES

M2/M3 (ratio between M2 and M3 receptor affinities) strictly < 30 for this molecule? C=C(C)C1CCC(CN(C(=O)OC2CN3CCC2CC3)c2cccc(C)c2)CC1 (stereo not shown)
NO

M2/M3 (ratio between M2 and M3 receptor affinities) strictly < 30 for this molecule? O=C(OC1CN2CCC1CC2)N(Cc1cc(F)c(F)c(F)c1)c1cccc(F)c1 (stereo not shown)
NO

M2/M3 (ratio between M2 and M3 receptor affinities) strictly < 30 for this molecule? O=C(OC1CN2CCC1CC2)N(CC1CCCCC1)c1ccccc1F (stereo not shown)
NO

M2/M3 (ratio between M2 and M3 receptor affinities) strictly < 30 for this molecule? COc1ccc(F)c(CN(C(=O)OC2CN3CCC2CC3)c2ccccc2)c1 (stereo not shown)
YES

M2/M3 (ratio between M2 and M3 receptor affinities) strictly < 30 for this molecule? O=C(OC1CN2CCC1CC2)N(Cc1cccc(F)c1)c1cccc(F)c1 (stereo not shown)
NO

M2/M3 (ratio between M2 and M3 receptor affinities) strictly < 30 for this molecule? O=C(OC1CN2CCC1CC2)N(Cc1ccc2c(c1)OCO2)c1ccccc1 (stereo not shown)
YES
